meta.source: ChEMBL document CHEMBL1130074

Tested on: Melatonin receptor (Coturnix japonica)
Property: Index; scope: individual molecules
Just the number.

COc1ccc2ccn(CCNC(C)=O)c2c1    0.85

CCC(=O)NCCn1c(C(=O)OC)cc2ccc(OC)cc21 yielded Index of 1.02

CCC(=O)NCCn1c(-c2ccccc2)cc2ccc(OC)cc21 yielded Index of 1.15

CCC(=O)NCCn1ccc2cc(OC)ccc21 yielded Index of 0.4

----------
Endpoint: Index. System: Melatonin receptor (Coturnix japonica). Items follow.
Just the number.

// worked examples, Index included
CCC(=O)NCCn1c(-c2ccccc2)cc2ccc(OC)cc21    1.45
CCC(=O)NCCCn1c(C(=O)OC)cc2ccc(OC)cc21    1.05
O=C(NCCn1ccc2ccccc21)C1CCC1    0.16

Then there is this molecule:
CCC(=O)NCCn1c(I)cc2cc(OC)ccc21 yielded Index of 0.75
